Tested on: CYP2C19
measurementNotes: THC incubations with recombinant CYP2C19 in the presence and absence of FABP1
Type: in vitro ADME, human
recordedConditions: human, recombinant CYP2C19 (Supersomes) with 20 μM FABP1, Km,u + FABP1, M3 formation, recombinant CYP2C19, 20 μM FABP1
reportedProperty: Km at 2 min
Your reply should be a number followed by the unit it is expressed in.

Lookup: For the molecule shown here, CCCCCc1cc(O)c2c(c1)OC(C)(C)[C@@H]1CCC(C)=C[C@@H]21 [THC, Δ9-tetrahydrocannabinol] , give the reported Km at 2 min.
Found: 4.7 nM

----------
System: CYP2C9
measurementNotes: THC incubations with recombinant CYP2C9 in the presence and absence of FABP1
Format: in vitro ADME, human
recordedConditions: human, recombinant CYP2C9 (Supersomes) with 20 μM FABP1, Km,u + FABP1, 11-OH-THC formation, recombinant CYP2C9, 20 μM FABP1
reportedProperty: Km at 1 min

Lookup: For the compound shown here, CCCCCc1cc(O)c2c(c1)OC(C)(C)[C@@H]1CCC(C)=C[C@@H]21 [THC, Δ9-tetrahydrocannabinol] , give the reported Km at 1 min.
Found: > 0.02 µM

----------
measuredTarget: human FABP1 (Homo sapiens, UniProt P07148)
Sequence (P07148 1-127): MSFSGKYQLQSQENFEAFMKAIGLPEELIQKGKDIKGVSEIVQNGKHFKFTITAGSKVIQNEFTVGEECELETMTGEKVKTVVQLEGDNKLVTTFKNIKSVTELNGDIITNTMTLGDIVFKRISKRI
measurementNotes: DAUDA displacement assay of cannabinoid binding to FABP1
reportedProperty: pEC50
Lab note: report pEC50 as minus log10 of the concentration in molar units, number only.

Lookup: For the molecule shown here, `C=C(C)[C@@H]1CCC(C)=C[C@H]1c1c(O)cc(CCCCC)cc1O` , give the reported pEC50.
Found: 6.04

Lookup: Then what about the molecule `CCCCC/C=C\C/C=C\C/C=C\C/C=C\CCCC(=O)OC(CO)CO` ?
Found: 6.74

Lookup: Then what about the molecule CCCCCc1cc(O)c2c(c1)OC(C)(C)[C@@H]1CCC(C)=C[C@@H]21 [THC, Δ9-tetrahydrocannabinol] ?
Found: 6.66

Lookup: Then what about the molecule CCCCC/C=C\C/C=C\C/C=C\C/C=C\CCCC(=O)NCCO [AEA, anandamide] ?
Found: 6.51

----------
measurementNotes: Kinetics of THC metabolite formation in pooled human liver microsomes
Format: in vitro ADME
recordedConditions: human, pooled human liver microsomes, Km,unbound of M2 formation, pooled HLMs 0.1 mg/mL; free THC concentrations
reportedProperty: Km at 2 min

Lookup: For the compound shown here, CCCCCc1cc(O)c2c(c1)OC(C)(C)[C@@H]1CCC(C)=C[C@@H]21 [THC, Δ9-tetrahydrocannabinol] , give the reported Km at 2 min.
Found: > 0.045 µM

----------
Test system: CYP2C19
measurementNotes: THC incubations with recombinant CYP2C19 in the presence and absence of FABP1
Format: in vitro ADME, human
recordedConditions: human, recombinant CYP2C19 (Supersomes), Km,u −FABP1, 11-OH-THC formation, recombinant CYP2C19, absence of FABP1
reportedProperty: Km at 2 min (nM)
Answer format: numeric, nM implied, no suffix.

Lookup: For the compound shown here, CCCCCc1cc(O)c2c(c1)OC(C)(C)[C@@H]1CCC(C)=C[C@@H]21 [THC, Δ9-tetrahydrocannabinol] , give the reported Km at 2 min.
Found: 2.2
